# system: TbHsp83 NTD (Trypanosoma brucei brucei, UniProt P12861)
# Sequence (P12861 1-213): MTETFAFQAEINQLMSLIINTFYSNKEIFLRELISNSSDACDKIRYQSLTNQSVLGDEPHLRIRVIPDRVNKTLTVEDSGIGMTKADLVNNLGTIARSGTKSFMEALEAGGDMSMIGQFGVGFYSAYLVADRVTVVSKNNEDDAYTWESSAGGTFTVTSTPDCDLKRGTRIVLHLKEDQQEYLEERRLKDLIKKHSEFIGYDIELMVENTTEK
# experiment description: biochemical
# Assay type: binding
# test settings: ITC; read-out: K d
observation type: Kd (nM)
Express your answer in nM, writing the number without its unit.

Response field Kd (TbHsp83 NTD (Trypanosoma brucei brucei, UniProt P12861)) for item CC1(C)CC(=O)c2c(C(F)(F)F)nn(-c3ccc(C(N)=O)c(N[C@H]4CC[C@H](O)CC4)c3)c2C1 : 2.8

* * *

# system: TbHsp83 NTD (Trypanosoma brucei brucei, UniProt P12861)
# Format: binding
# test settings: TbHsp83 NTD, inhibitor 25 µM; shifts above 2°C considered significant
observation type: ΔT m (°C)
Express your answer in °C, writing the number without its unit.

See these solved cases before continuing.
[
  {
    "compound": "CO[C@H]1/C=C\\C=C(/C)C(=O)NC2=CC(=O)C(NCCN3CCCC3)=C(C[C@@H](C)C[C@H](OC)[C@H](O)[C@@H](C)/C=C(\\C)[C@@H]1OC(N)=O)C2=O",
    "system": "TbHsp83 NTD (Trypanosoma brucei brucei, UniProt P12861)",
    "observation type": "ΔT m",
    "units label": "°C",
    "measurement": 13.8
  },
  {
    "compound": "CCC(C)n1c(Cc2cc(OC)ccc2OC)nc2c(N)nc(C)nc21 (centres unmarked)",
    "system": "TbHsp83 NTD (Trypanosoma brucei brucei, UniProt P12861)",
    "observation type": "ΔT m",
    "units label": "°C",
    "measurement": 0.8
  }
]

So for COC1=C2C[C@@H](C)C[C@H](OC)[C@H](O)[C@@H](C)/C=C(\C)[C@H](OC(N)=O)[C@@H](OC)/C=C\C=C(/C)C(=O)NC(=CC1=O)C2=O , the logged ΔT m turned out to be 14.8

So for CCNC(=O)c1noc(-c2cc(C(C)C)c(O)cc2O)c1-c1ccc(CN2CCOCC2)cc1 , the logged ΔT m turned out to be 18.5
